These entries and their values trace back to paper PMC10253817.

# MEASURED_TARGET: α4β1 integrin (Homo sapiens, UniProt P05556+P13612)
# Construct: Jurkat E6.1 cell line, which endogenously expresses α4β1 integrin; host or cells: Jurkat E6.1
# Sequence (P13612 34-1032): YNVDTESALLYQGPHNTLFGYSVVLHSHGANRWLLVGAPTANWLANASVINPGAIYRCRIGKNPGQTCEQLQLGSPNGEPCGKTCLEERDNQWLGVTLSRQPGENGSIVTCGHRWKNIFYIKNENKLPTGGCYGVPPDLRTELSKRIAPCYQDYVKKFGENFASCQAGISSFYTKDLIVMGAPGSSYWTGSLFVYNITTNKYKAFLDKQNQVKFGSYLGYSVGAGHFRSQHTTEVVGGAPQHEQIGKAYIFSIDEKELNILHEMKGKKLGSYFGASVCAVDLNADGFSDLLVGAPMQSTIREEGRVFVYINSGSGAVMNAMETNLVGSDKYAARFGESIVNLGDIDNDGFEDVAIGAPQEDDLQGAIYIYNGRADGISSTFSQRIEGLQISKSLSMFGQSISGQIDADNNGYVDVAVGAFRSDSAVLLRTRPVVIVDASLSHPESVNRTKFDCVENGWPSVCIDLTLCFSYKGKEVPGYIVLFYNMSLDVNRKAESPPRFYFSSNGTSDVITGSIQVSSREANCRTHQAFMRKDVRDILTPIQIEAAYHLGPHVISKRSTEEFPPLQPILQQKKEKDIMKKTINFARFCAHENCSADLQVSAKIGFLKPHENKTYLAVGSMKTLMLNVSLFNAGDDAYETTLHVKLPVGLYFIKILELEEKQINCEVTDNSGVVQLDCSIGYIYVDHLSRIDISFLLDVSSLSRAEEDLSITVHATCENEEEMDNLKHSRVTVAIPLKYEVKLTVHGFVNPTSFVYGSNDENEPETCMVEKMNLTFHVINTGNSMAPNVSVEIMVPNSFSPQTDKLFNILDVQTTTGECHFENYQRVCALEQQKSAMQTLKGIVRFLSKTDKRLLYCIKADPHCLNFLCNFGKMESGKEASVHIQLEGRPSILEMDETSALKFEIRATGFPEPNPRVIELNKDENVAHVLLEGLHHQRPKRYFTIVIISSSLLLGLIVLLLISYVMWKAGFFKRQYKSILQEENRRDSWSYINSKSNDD
# Sequence (P05556 21-798): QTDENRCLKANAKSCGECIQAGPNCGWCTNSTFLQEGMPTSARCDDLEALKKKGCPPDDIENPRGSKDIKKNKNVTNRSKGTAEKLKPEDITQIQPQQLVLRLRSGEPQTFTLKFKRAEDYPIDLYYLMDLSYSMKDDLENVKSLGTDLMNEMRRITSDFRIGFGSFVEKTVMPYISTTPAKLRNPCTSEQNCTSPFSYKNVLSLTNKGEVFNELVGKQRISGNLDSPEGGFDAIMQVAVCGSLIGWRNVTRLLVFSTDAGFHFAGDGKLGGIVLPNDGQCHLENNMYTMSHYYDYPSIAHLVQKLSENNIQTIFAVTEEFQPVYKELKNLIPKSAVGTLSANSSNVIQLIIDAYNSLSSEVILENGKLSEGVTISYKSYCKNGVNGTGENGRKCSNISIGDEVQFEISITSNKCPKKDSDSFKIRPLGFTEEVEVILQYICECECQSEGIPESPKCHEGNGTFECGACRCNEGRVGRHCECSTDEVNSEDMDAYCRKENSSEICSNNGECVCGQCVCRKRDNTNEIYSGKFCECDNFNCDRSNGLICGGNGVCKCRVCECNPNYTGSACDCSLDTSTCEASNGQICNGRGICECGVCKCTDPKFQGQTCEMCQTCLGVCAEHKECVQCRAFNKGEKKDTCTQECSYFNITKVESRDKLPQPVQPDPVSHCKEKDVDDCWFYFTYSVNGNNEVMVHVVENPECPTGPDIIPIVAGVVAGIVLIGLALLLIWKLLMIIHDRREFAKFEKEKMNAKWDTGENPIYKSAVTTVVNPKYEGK
# EXPERIMENT: α4β1 integrin-mediated Jurkat cell adhesion to VCAM-1
# Type: cell-based
# STATED_CONDITIONS: Jurkat cell adhesion to VCAM-1 (2 μg/mL); antag. = reduced cell adhesion; mean ± SD
OBSERVED_PROPERTY: pIC50
In plain terms, pIC50 is the concentration in mol/L turned into minus its base-10 logarithm.

For Cc1ccccc1NC(=O)Nc1ccc(CNC(=O)C[C@@H](C)NC(=O)CC(=O)O)cc1 [compound 13] on α4β1 integrin (Homo sapiens, UniProt P05556+P13612), measured pIC50 was 6.06

// compound Cc1ccccc1NC(=O)Nc1ccc(CC(=O)N2CC[C@H](C(=O)NCC(=O)O)C2)cc1 [DS-70, MPUPA-β^2Pro-Gly, reference compound] , assay α4β1 integrin (Homo sapiens, UniProt P05556+P13612), pIC50 value: 8.30

Tested on α4β1 integrin (Homo sapiens, UniProt P05556+P13612), the item CC(=O)N[C@@H](CNC(=O)Cc1ccc(NC(=O)Nc2ccccc2C)cc1)C(=O)NCC(=O)O [compound 3] showed pIC50 equal to 6.01

Tested on α4β1 integrin (Homo sapiens, UniProt P05556+P13612): CCCNC(=O)[C@@H](CC(=O)NCC(=O)O)NC(=O)Cc1ccc(NC(=O)Nc2ccccc2C)cc1 [compound 8] . Observed pIC50: 7.27

* * *

# MEASURED_TARGET: α4β1 integrin (Homo sapiens, UniProt P05556+P13612)
# Construct: Jurkat E6.1 cell line, which endogenously expresses α4β1 integrin; host or cells: Jurkat E6.1
# EXPERIMENT: LDV-FITC competitive binding on intact Jurkat E6.1 cells
# STATED_CONDITIONS: intact Jurkat E6.1 cells vs. LDV-FITC; mean ± SD
Give pKi for every item shown.
Note on units: pKi is unitless, being -log10 of a concentration expressed in mol/L.

Result for Cc1ccccc1NC(=O)Nc1ccc(CC(=O)N2CC[C@H](C(=O)NCC(=O)O)C2)cc1 [DS-70, MPUPA-β^2Pro-Gly, reference compound] , tested on α4β1 integrin (Homo sapiens, UniProt P05556+P13612), pKi: 9.03

Entry Cc1ccccc1NC(=O)Nc1ccc(CNC(=O)C[C@@H](C)NC(=O)CC(=O)O)cc1 : pKi on α4β1 integrin (Homo sapiens, UniProt P05556+P13612) = 7.78

α4β1 integrin (Homo sapiens, UniProt P05556+P13612) data for CCCNC(=O)[C@@H](CC(=O)NCC(=O)O)NC(=O)Cc1ccc(NC(=O)Nc2ccccc2C)cc1 ; its pKi: 8.72

Entry CC(=O)N[C@@H](CNC(=O)Cc1ccc(NC(=O)Nc2ccccc2C)cc1)C(=O)NCC(=O)O : pKi on α4β1 integrin (Homo sapiens, UniProt P05556+P13612) = 8.89
